Test system: Expi293 cells
Assay info: CellTiter-Glo cell health (ATP levels) during cell association assay
Assay type: cell-based
Condition notes: reflective of cell health, luminescence Tfinal (22 hours) / Tinitial
Result type: CellTiter-Glo fold change ± SD

CCCC[C@H](NC(=O)[C@H](Cc1ccc(O)cc1)NC(=O)[C@H](CCC(N)=O)NC(=O)[C@]1(C)CCCC=CCCCCCC[C@@](C)(NC(=O)[C@H](CCC(=O)O)NC(=O)[C@H](CC(C)C)NC(=O)[C@@H](NC(C)=O)[C@@H](C)CC)C(=O)N[C@@H](Cc2ccc(O)cc2)C(=O)N[C@@H](CCC(=O)O)C(=O)N[C@@H](C)C(=O)N[C@@H](C)C(=O)N[C@@H](Cc2ccccc2)C(=O)N[C@@H](CCC(=O)O)C(=O)N1)C(N)=O (single isomer, unassigned) [FP08018]    1.1 ± 0.05

Return CellTiter-Glo fold change ± SD measured with Expi293 cells given this molecule: CC(=O)N[C@@H](CC(C)C)C(=O)N[C@H](C(=O)N[C@@H](Cc1ccccc1)C(=O)N[C@]1(C)CCCCCCC=CCCC[C@@](C)(C(=O)N[C@@H](CO)C(=O)N[C@@H](C)C(=O)N[C@@H](C)C(N)=O)NC(=O)[C@H](CC2CCC2)NC(=O)[C@H](CCC(N)=O)NC(=O)[C@H](C)NC(=O)[C@H](Cc2c[nH]c3ccccc23)NC(=O)[C@H](Cc2ccc(O)cc2)NC(=O)[C@H](CCC(=O)O)NC1=O)[C@@H](C)O [FP01413, reference compound] 1.2 ± 0.07
